- system-tested: Glycogen phosphorylase
- procedure-text: Inhibition of glycogen phosphorylase
quantity: IC50
Answer format: number, then unit.

Req: Tell me measured IC50 for COc1ccc(-c2c(C#N)c(N)c(C#N)c(SC)c2-c2ccc(F)cc2)c(OC)c1 please.
Resp: 79 µM

---

Please provide measured inhibition for the entries that follow.
- Test system: Glycogen phosphorylase
- procedure-text: Inhibition of glycogen phosphorylase at 100 uM

Req: Please report the measured inhibition for COc1ccc(-c2c(C#N)c(N)c(C#N)c(SC)c2-c2ccccc2)cc1
Resp: 37.9%

Req: Read off the recorded inhibition for Cc1c(-c2ccccc2)c(C#N)c(N)c(C#N)c1N1CCC(C)CC1
Resp: 2.3%

Req: For the compound COc1ccc(-c2c(C)c(SC)c(C#N)c(N)c2C#N)cc1 , give its reported inhibition.
Resp: 37.5%

Req: Provide measured inhibition value, entry: CSc1c(C#N)c(N)c(C#N)c(Cc2ccccc2)c1-c1ccccc1
Resp: 11.6%

Req: // fetch inhibition given entry COc1ccc(-c2c(C#N)c(N)c(C#N)c(SC)c2-c2ccc(OC)cc2)cc1
Resp: 6.9%

Req: Note down inhibition recorded for COc1ccc(-c2c(C#N)c(N)c(C#N)c(SC)c2-c2ccc(OC)c(OC)c2)cc1
Resp: 13.8%

Req: Retrieve inhibition measured for CSc1c(C#N)c(N)c(C#N)c(C)c1-c1ccc(C(F)(F)F)cc1 and print it.
Resp: 55%

Req: Specify inhibition for COc1ccc(-c2c(C#N)c(N)c(C#N)c(SC)c2-c2ccc(F)cc2)c(OC)c1 and stop.
Resp: 74.3%

Req: Give inhibition for CSc1c(C#N)c(N)c(C#N)c(C)c1-c1ccccc1F
Resp: 20%

Req: Note inhibition for the compound shown: CSc1c(C)c(-c2ccc(Cl)cc2)c(C#N)c(N)c1C#N
Resp: 12.5%
